Molecular target: Solute carrier family 2, facilitated glucose transporter member 1 (Homo sapiens) (UniProt P11166)
Sequence (P11166 whole entry): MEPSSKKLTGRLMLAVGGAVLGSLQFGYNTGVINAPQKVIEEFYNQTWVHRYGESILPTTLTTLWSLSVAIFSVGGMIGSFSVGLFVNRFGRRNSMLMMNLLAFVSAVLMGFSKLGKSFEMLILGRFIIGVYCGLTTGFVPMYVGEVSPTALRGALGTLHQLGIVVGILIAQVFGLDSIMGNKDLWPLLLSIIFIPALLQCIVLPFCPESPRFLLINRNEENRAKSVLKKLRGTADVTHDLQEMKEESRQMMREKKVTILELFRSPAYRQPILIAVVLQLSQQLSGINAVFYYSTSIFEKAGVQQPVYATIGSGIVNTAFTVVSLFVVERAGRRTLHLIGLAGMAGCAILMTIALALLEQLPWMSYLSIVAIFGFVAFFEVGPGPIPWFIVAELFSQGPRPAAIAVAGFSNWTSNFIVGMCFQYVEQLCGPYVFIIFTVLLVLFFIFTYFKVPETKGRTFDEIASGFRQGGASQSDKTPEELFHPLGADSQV
Assay: ST_JUDE_LEISH: Cytotoxicity at 2uM final concentration against transgenic Leishmania Mexicana promastigotes LmGLUT1 that are glucose transport deficient and complemented with the human glucose transporter GLUT1. Activity is measured by DNA content using SYBR green in vitro
Type: functional
observable: inhibition (%)
Number in %, nothing else.

>  <compound>
Cc1ccc(C)c(NC(=O)CC2C(=O)N(c3ccccc3)C(=S)N2Cc2ccco2)c1 (stereo not drawn)

>  <test value>
4.9

$$$$
>  <compound>
CC(c1cccc(S(=O)(=O)NCc2ccc(Cl)cc2Cl)c1)N1CCC(N2CCCCC2)CC1 (stereo not drawn)

>  <test value>
8.44

$$$$
>  <compound>
CC(C)(C)c1ccc(Cc2cccc3nc(N)nc(N)c23)cc1

>  <test value>
21

$$$$
>  <compound>
O=C(c1csc(-c2cccnc2)n1)N1CCc2cc3nccc(N4CCN5CCC[C@H]5C4)c3cc21

>  <test value>
15

$$$$
>  <compound>
Cc1ccc(-c2ccn(Cc3cccc(OCc4ccccc4)c3)n2)cn1.Cc1ccc(-c2ccnn2Cc2cccc(OCc3ccccc3)c2)cn1

>  <test value>
2.15

$$$$

Which inhibition is reported for this compound? Cc1ccc2[nH]c3c(NCCCN4CCOCC4)ncnc3c2c1
7.43

Try the compound CCCCNc1c(C(=O)OCC)c(C)nc2c1[nH]c1ccccc12
3.19

And CN(C)S(=O)(=O)c1ccc(N2C(=O)C3C(C2=O)C2(c4ccccc4)C(=O)C3(c3ccccc3)C(c3ccccc3)=C2c2ccccc2)cc1 (stereo not drawn) ?
-0.75

Would you mind doing CC(C)N1CCN(C(CN2CCN(CCCOc3ccc(-c4ccccc4)cc3)CC2)c2ccc(F)cc2)CC1 (stereo not drawn) as well?
60.6

Can you check CC(C)c1ccc(CN2CCC(CNC(=O)c3cc(-c4cccc(Cl)c4)cs3)C2)cc1 (stereo not drawn) next?
1.24

// repeat for Fc1ccc(Nc2ccnc3cc(-c4cccc(CNCCN5CCOCC5)c4)ccc23)c(Cl)c1 and report
2.04

Can you check COc1ccc(-c2nc(NC(=O)COc3ccc(C(C)=O)cc3)sc2C)cc1 next?
2.62

Item: c1ccc2c(Nc3ccc(OCCOCCOc4ccc(Nc5c6ccccc6nc6ccccc56)cc4)cc3)c3ccccc3nc2c1
-2.9

Also, CC(C)[C@H](NC(=O)c1c(CN2CCC(N3CCCCC3)CC2)c(-c2ccccc2)nc2cc(O)ccc12)c1ccccc1 please.
2.26

Try this compound next: O=C1CCCN1CCCNCc1ccc(-c2cccc(-c3nc4cc(F)ccc4[nH]3)c2)cc1
-2.56

One more compound: CC(C)c1ccc(CN2CCC(CNC(=O)c3cc(-c4cccc(C(F)(F)F)c4)cs3)C2)cc1 (stereo not drawn)
1.18

Can you handle CC1=C(C(=O)OCCOCc2ccccc2)C(c2ccccc2C(F)(F)F)C(C(=O)OCCOCc2ccccc2)=C(C)N1 next?
-0.46

Check COc1ccc(-c2nc(-c3ccc([N+](=O)[O-])cc3)no2)cc1OC too.
1.91

Origin of measurements: ChEMBL document CHEMBL3433997
